# Tested on: Vero E6 infected with SARS-CoV-2
# protocolNotes: SARS-CoV-2 infection rate relative to infected DMSO; higher = more infection, active = 60 or less
# conditionContext: 24 h
Choose the fitting class; nothing outside T (active), F (inactive) is accepted.

Worked examples follow.
- molecule: "CC(C)[N+](C)(CCOC(=O)C1c2ccccc2Oc2ccccc21)C(C)C [propantheline] (10 µM)"
  classLabel: "F"
- molecule: "O=C(C1CC1)N1CC[C@@H](Cc2n[nH]c(=O)n2-c2ccc(-c3ccc4occc4c3)cc2)C1 (10 µM)"
  classLabel: "F"
- molecule: "CCOc1cc([C@@H](CS(C)(=O)=O)N2C(=O)c3cccc(NC(C)=O)c3C2=O)ccc1OC [apremilast] (10 µM)"
  classLabel: "F"
- molecule: "CCC(CC)CC1(C(=O)Nc2ccccc2SC(=O)C(C)C)CCCCC1 [dalcetrapib] (10 µM)"
  classLabel: "F"
- molecule: "C=C1/C(=C\\C=C2/CCC[C@]3(C)[C@@H]([C@H](C)/C=C/[C@H](C)C(C)(C)O)CC[C@@H]23)C[C@@H](O)C[C@@H]1O [ercalcitriol] (10 µM)"
  classLabel: "F"
- molecule: "COc1cc(C[C@H]2c3cc(OC)c(OC)cc3CCN2C)c(Oc2cc3c(cc2OC)-c2c(OC)c(OC)cc4c2[C@H](C3)N(C)CC4)cc1OC [thaliblastine] (10 µM)"
  classLabel: "T"
- molecule: "CS(=O)(=O)c1ccc(-c2nnc(/C=C/c3nnc(-c4ccc(C#N)cc4)o3)n2-c2ccccc2Cl)nc1 (10 µM)"
  classLabel: "F"
- molecule: "Cc1nc[nH]c1CCN [4-methylhistamine] (10 µM)"
  classLabel: "F"

# next molecule below
Request: For COc1ccc(-c2cc(=S)ss2)cc1 [anethole-trithione] (10 µM) , what call appears in the results of this test?
Result: F
